Reported growth AUC values for the following compounds.
- System: Streptococcus salivarius
- assay method text: growth AUC relative to DMSO control (median of replicates) (fraction); higher = more growth (less inhibition), active = hit call of the paper
- study conditions: 20 µM; 24 h

compound | growth AUC
c1ccc2cc3ccccc3cc2c1 | 0.919
CC(=O)CC(c1ccccc1)c1c(O)c2ccccc2oc1=O (stereo not given) | 1
NC(=O)c1nn(-c2c(Cl)cc(C(F)(F)F)cc2Cl)c(N)c1S(=O)C(F)(F)F (stereo not given) | 0.977
COC(=O)C(Cl)Cc1ccc(Cl)cc1 (stereo not given) | 0.93
O=C(O)COc1cc(N2C(=O)C3=C(CCCC3)C2=O)c(F)cc1Cl | 0.977
C[S+](C)CCC(=O)O.[Cl-] | 0.994
O=c1cccc2n1CCn1c-2cccc1=O | 1.02
O=C(O)C1(C(=O)Nc2ccc(Cl)cc2Cl)CC1 | 1.01
COC(=O)CSc1cc(N=c2sc(=O)n3n2CCCC3)c(F)cc1Cl | 0.946
CCOC(=O)Nc1cccc(OC(=O)Nc2cccc(C)c2)c1 | 0.971
CNC(=O)/C(=N/OC)c1ccccc1COc1cc(C(=O)O)ccc1C | 0.995
Cc1ccc(C)c(O)c1 | 1.09
O=C(Nc1ccc(F)cc1-c1ccc(Cl)c(Cl)c1)c1cn[nH]c1C(F)F | 0.945
CC(Oc1ccc(Cl)cc1Cl)C(=O)NC(C)(C#N)C(C)C (stereo not given) | 0.918
Oc1ccc2ccccc2c1N=Nc1ccccc1 | 0.914
CN(C)C(=O)Nc1ccc(Oc2ccc(Cl)cc2)cc1 | 0.94
Cc1ccc(C(C)NC(=O)[C@@H](NC(=O)OC(C)C)C(C)C)cc1 (stereo not given in full) | 0.963
CCCCCCCCc1c(CC)nc2ncnn2c1N | 0.985
Cc1cc(C)cc(O)c1 | 1.03
Cc1cccc(C)c1O | 0.968
O=S(=O)(Oc1ccc(Cl)cc1)c1ccccc1 | 0.955
Cc1ccc2c(c1)[C@H](Nc1nc(N)nc(C(C)F)n1)[C@@H](C)C2 (stereo not given in full) | 1.01
O=C1NCCN1 | 1.02
CCc1cccc(C)c1N(C(=O)C(=O)O)[C@@H](C)C(=O)O | 0.943
Nc1ccc(O)cc1 | 0.947

----------
- System: Parabacteroides merdae
- assay method text: growth AUC relative to DMSO control (median of replicates) (fraction); higher = more growth (less inhibition), active = hit call of the paper
- study conditions: 20 µM; 24 h
Listed here are molecules together with their documented growth AUC.
readout label: growth AUC

molecule | meas value
Cc1nn(C)c(OCC(=O)c2ccccc2)c1C(=O)c1ccc(Cl)cc1Cl | 0.926
COC(=O)C(C)Oc1ccc(Oc2ncc(C(F)(F)F)cc2Cl)cc1 (stereo not given) | 0.963
O=[N+]([O-])c1ccc(Oc2c(Cl)cc(Cl)cc2Cl)cc1 | 0.899
C#CCOc1cc(-n2nc(C(C)(C)C)oc2=O)c(Cl)cc1Cl | 0.951
FC(F)(F)/N=C1\SC(=Nc2ccccc2)N(c2ccccc2)\C1=N\C(F)(F)F | 0.908

----------
- Tested on: Odoribacter splanchnicus
- assay method text: growth AUC relative to DMSO control (median of replicates) (fraction); higher = more growth (less inhibition), active = hit call of the paper;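 active = AUC reduced over 20% with Padj below 0.05 in at least 2 of 3 replicates; inactive = otherwise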
- study conditions: 20 µM; 24 h
Labels: active, inactive

compound | class name
COC(=O)c1cccc(C)c1S(=O)(=O)NC(=O)Nc1nc(OCC(F)(F)F)nc(N(C)C)n1 | inactive
CCCCC(CC)COC(=O)COc1ccc(Cl)cc1C (stereo not given) | inactive
O=C(Oc1ccccc1)n1c(C(F)(F)F)nc2cc(Cl)c(Cl)cc21 | active
COC(=O)c1ccc(C(F)(F)F)nc1S(=O)(=O)[N-]C(=O)Nc1nc(OC)cc(OC)n1.[Na+] | inactive
CCSc1nc(NC(C)C)nc(NC(C)C)n1 | inactive

----------
growth AUC values for the compounds below.
- Tested on: Bifidobacterium longum subsp. longum
- assay method text: growth AUC relative to DMSO control (median of replicates) (fraction); higher = more growth (less inhibition), active = hit call of the paper
- study conditions: 20 µM; 24 h

compound | growth AUC
COc1ccc(Oc2ccc(NC(=O)N(C)C)cc2)cc1 | 0.957
CCOCOc1ccc(C(=O)Nc2cccc(Cl)c2Cl)cc1 | 0.907
COC(=O)C(C)Oc1ccc(Cl)cc1Cl (stereo unspecified) | 1
CC(C)NS(=O)(=O)NC(=O)c1cc(NC(N)=O)c(F)cc1Cl | 1.02
CC(C)N(C(=O)CS(=O)(=O)[O-])c1ccccc1.[Na+] | 1.29
COC(=O)c1c(Cl)ccc(Cl)c1OC | 1.04

----------
- System: Clostridium difficile
- assay method text: growth AUC relative to DMSO control (median of replicates) (fraction); higher = more growth (less inhibition), active = hit call of the paper
- study conditions: 20 µM; 24 h
Values of growth AUC greater than or equal to 1 map to t; values below map to f.

compound | class name
O.O=C(Nc1ccc(Cl)c(Cl)c1)Nc1cc(Cl)ccc1Oc1ccc(Cl)cc1S(=O)(=O)[O-].[Na+] | f
CCNc1nc(NC(C)(C)C)[nH]c(=O)n1 | f
CCc1cccc(C)c1N(C(=O)C(=O)O)C(C)COC (stereo unspecified) | t
COC(=O)c1ccccc1S(=O)(=O)NC(=O)n1nc(OCC(C)O)n(C)c1=O (stereo unspecified) | f

----------
- Test system: Collinsella aerofaciens
- assay method text: growth AUC relative to DMSO control (median of replicates) (fraction); higher = more growth (less inhibition), active = hit call of the paper
- study conditions: 20 µM; 24 h
readout label: growth AUC

compound | readout label | meas value
COc1nc(NC(=O)NS(=O)(=O)c2ccccc2C(F)(F)F)nc(C(F)(F)F)n1 | growth AUC | 1.01
CCOC(=O)/C(Cl)=C/c1cc(N2C(=O)C3=C(CCCC3)C2=O)ccc1Cl | growth AUC | 1.03
Nc1ccc(S(=O)(=O)Nc2cnc3ccccc3n2)cc1 | growth AUC | 0.982
FC(F)(F)c1cccc(C(c2ccccc2)(c2ccccc2)n2cncn2)c1 | growth AUC | 0.924
CCOCCc1ccc(OCCNc2ncnc(CC)c2Cl)c(C)c1C | growth AUC | 0.94
c1ccc2cc3c(ccc4ccccc43)cc2c1 | growth AUC | 1
CCCCOC(=O)C(C)Oc1ccc(Oc2ccc(C(F)(F)F)cn2)cc1 (stereo not given) | growth AUC | 0.963
COc1ccc(Oc2ccc(NC(=O)N(C)C)cc2)cc1 | growth AUC | 1
CC1CN(C2CCCCCCCCCCC2)CC(C)O1 (mixture of isomers) | growth AUC | 0.915
Nc1nc2ccccc2[nH]1 | growth AUC | 0.943

----------
- Test system: Bacteroides caccae
- assay method text: growth AUC relative to DMSO control (median of replicates) (fraction); higher = more growth (less inhibition), active = hit call of the paper
- study conditions: 20 µM; 24 h
Documented growth AUC across a set of molecules
readout label: growth AUC

molecule | meas value
CN(C)C(=O)SCCCCOc1ccccc1 | 0.957
CCCCCCCCCC[N+](C)(C)Cc1ccccc1.[Cl-] | 0.962
COC(=O)COc1ccc(Cl)cc1C | 1.04
CCCC(C)(C)C(=O)Nc1ccc(Cl)cc1 | 1
CCc1ccc(C(c2ccc(CC)cc2)C(Cl)Cl)cc1 | 0.912
CC(C)C(O)(c1ccc(OC(F)(F)F)cc1)c1cncnc1 (configuration not stated) | 1
O=c1oc(-c2ccccc2)nc2ccccc12 | 1.01
CSc1nc(NC2CC2)nc(NC(C)(C)C)n1 | 1.03
CNC(=O)/C(=N/OC)c1ccccc1COc1cc(C(=O)O)ccc1C | 0.982
CCN(CC)c1nc(C)cc(=O)[nH]1 | 0.974
CCOc1ccc2c(c1)C(C)=CC(C)(C)N2 | 1.04
CC(C)CCCCCOC(=O)C(C)Oc1ccc(Cl)cc1Cl (configuration not stated) | 1

----------
- Tested on: Bifidobacterium longum subsp. longum
- assay method text: growth AUC relative to DMSO control (median of replicates) (fraction); higher = more growth (less inhibition), active = hit call of the paper
- study conditions: 20 µM; 24 h
Catalogue of compounds with associated growth AUC

compound | growth AUC
N#Cc1c(N)nc(NC2CC2)nc1N | 0.899
Cc1cccc(C)c1N(CCSCC(O)C(=O)[O-])C(=O)CO.[Na+] (stereo unspecified) | 1.05
CCCCCCCC/C=C\CCCCCCCCCCCCC | 0.964
Nc1cccc(O)c1 | 1.06
COC(=O)COc1ccc(Cl)cc1C | 0.805
COC1CCC2(CC1)NC(=O)C(c1cc(C)ccc1C)=C2OC1OC(CO)C(O)C(O)C1O (stereo unspecified) | 1

----------
- Tested on: Eubacterium rectale
- assay method text: growth AUC relative to DMSO control (median of replicates) (fraction); higher = more growth (less inhibition), active = hit call of the paper
- study conditions: 20 µM; 24 h
growth AUC values, listed per item

compound | target or system | growth AUC
COc1ccc(Oc2ccc(NC(=O)N(C)C)cc2)cc1 | Eubacterium rectale | 0.851
COC(=O)c1c(Cl)c(Cl)c(C(=O)OC)c(Cl)c1Cl | Eubacterium rectale | 1.16
CCNc1nc(NC(C)(C)C)nc(OC)n1 | Eubacterium rectale | 1.06
COC(=O)C(Cl)Cc1ccc(Cl)cc1 (stereo unspecified) | Eubacterium rectale | 0.994
COc1c(Cl)ccc(Cl)c1C(=O)O | Eubacterium rectale | 0.912
C#CCOc1cc(-n2nc(C(C)(C)C)oc2=O)c(Cl)cc1Cl | Eubacterium rectale | 1.09
c1ccc2cc3ccccc3cc2c1 | Eubacterium rectale | 1.27
CCc1cccc(C)c1NC(=O)C(=O)O | Eubacterium rectale | 0.989
N#Cc1cc(Cl)c(O)c(Cl)c1 | Eubacterium rectale | 0.972
CCN(CC)C(=O)SCc1ccccc1Cl | Eubacterium rectale | 0.939
c1ccc(Nc2ccccc2)cc1 | Eubacterium rectale | 0.9
CCOc1nc(F)cc2nc(S(=O)(=O)Nc3c(Cl)cccc3C(=O)OC)nn12 | Eubacterium rectale | 0.967
CCCCOC(=O)COc1ccc(Cl)cc1Cl | Eubacterium rectale | 0.979
CCCN(CCOc1c(Cl)cc(Cl)cc1Cl)C(=O)NC=O | Eubacterium rectale | 1.02
CCc1ccc(O)cc1 | Eubacterium rectale | 0.988
O=C1NCCN1 | Eubacterium rectale | 1.01
CCNc1nc(N)[nH]c(=O)n1 | Eubacterium rectale | 0.995
Cn1cc(C(=O)Nc2ccc(F)cc2-c2ccc(Cl)c(Cl)c2)c(C(F)F)n1 | Eubacterium rectale | 0.953
COc1cc(OC)nc(NC(=O)NS(=O)(=O)c2c(Cl)nc3ccccn23)n1 | Eubacterium rectale | 1.01
COc1nc(OC)nc(C(=O)c2cccc(F)c2N(C)S(=O)(=O)C(F)F)n1 | Eubacterium rectale | 1.18
CS(=O)(=O)c1ccc(C(=O)O)c(N)c1 | Eubacterium rectale | 1.05
CN1CCC[C@H]1c1cccnc1 | Eubacterium rectale | 0.978
CC1CN(C2CCCCCCCCCCC2)CC(C)O1 (mixture of isomers) | Eubacterium rectale | 1.23
CCCN(CCC)C(=O)SCC | Eubacterium rectale | 0.944
FC(F)(F)C(=NOCC1OCCO1)c1ccc(Cl)cc1 | Eubacterium rectale | 1.06
O=C(O)COc1cccc(Cl)c1Cl | Eubacterium rectale | 1.04
